The following compounds were reported with pIC50 values on PIK3CA (human) (UniProt P42336) in different studies.
pIC50: −log10 of the molar value.
Response key: yes (1) means pIC50 >= 7; no (0) means pIC50 < 7.

Q: Check the entry "COc1ccc2cc(-c3nc(Oc4ccc5[nH]ccc5c4)c4cnn(C)c4n3)ccc2c1" : does pIC50 equal or exceed 7?
A: no (0)

Q: Given the entry "CN(C)C(=O)C1CCN(c2ccnc3c2c(/C=C2\Oc4ccc(NC(=O)C(F)(F)F)cc4C2=O)cn3C)CC1" , answer whether its pIC50 meets or surpasses 7.
A: no (0)

Q: Please tell me: is the compound "CN(C)CCn1ccc2c(N3CCOCC3)nc(-c3ccc(NC(=O)Nc4ccncc4)cc3)nc21" at or over 7 in terms of pIC50?
A: yes (1)

Q: API: above_or_equal(metric=pIC50, cutoff=7) for item "CC(C)(C#N)C(=O)c1ccc(-c2nnc3cnc4ccc(-c5cnc(N)c(C(F)(F)F)c5)cc4n23)cc1"
A: yes (1)

Q: Is it the case that "O=c1cc(Oc2cccc(-c3ccc(NC4CCN(Cc5ccccn5)CC4)cc3)c2)c2ccccc2[nH]1" has pIC50 reaching or exceeding 7?
A: no (0)

Q: Decide: is the reported value of pIC50 for CNC(=O)C(C)Cn1cnc2ccc(-c3cnc(OC(F)(F)F)c(NS(=O)(=O)c4ccc(F)cc4Cl)c3)cc2c1=O (stereo not shown) equal to or greater than 7?
A: yes (1)

Q: Threshold query (pIC50 >= 7) on COc1ncc(-c2cc(OCC3CCCO3)c3ncnc(C)c3c2)cc1NS(=O)(=O)c1ccc(F)cc1F (stereo not shown)
A: yes (1)

Q: Threshold query (pIC50 >= 7) on "CCS(=O)(=O)Nc1cc(-c2ccc3ncc4nnc(C)n4c3c2)cnc1OC"
A: yes (1)

Q: Tell me whether pIC50 is at least 7 here: "Nc1nc2cc(-c3ccc4ncc(C(=O)NCCCN5CCCC5)n4c3)ccc2o1"
A: yes (1)

Q: Is pIC50 for "C[C@H](Nc1ncnc2[nH]cnc12)c1cc2cccc(Cl)c2c(CC(=O)N2CCOCC2)n1" at or above 7?
A: no (0)

Q: For this compound, is measured pIC50 7 or higher? "NC(=O)c1cccc(Nc2nc(-c3ccccc3)nc3c2cnn3C2CCN(Cc3ccccc3)CC2)c1"
A: no (0)

Q: Would you say "Cn1ncc2c(Nc3ccc(C(N)=O)cc3)nc(Nc3cccc(NC(=O)Nc4cccnc4)c3)nc21" shows pIC50 at minimum 7?
A: no (0)

----------
# IC50 against PIK3CA (human) (UniProt P42336), merged from multiple literature sources

Q: Endpoint output: IC50 of "C[C@H](NC(=O)c1nc(-c2ccc(NS(C)(=O)=O)cc2)cnc1N)c1cc2cccc(Cl)c2c(=O)n1-c1ccccc1" . Value?
A: > 10000 nM

Q: Looking for the measured IC50 of "C[C@H](NC(=O)c1nc(-c2ccc(S(C)(=O)=O)cc2)cnc1N)c1cc2cccc(Cl)c2c(=O)n1-c1ccccc1" , can you help?
A: > 10000 nM

Q: Returns the measured IC50 for the input compound. Input: "COC(=O)Nc1nc2ccc(-c3ccc4c(c3)CN(C(=O)N3CCC(C(F)F)CC3)CCO4)cc2[nH]1"
A: 200 to 500 nM

Q: If you can, please state the reported IC50 value of "C[C@H](Nc1ccc2c(c1)OCCn1cc(N3C(=O)CC[C@H]3CC#N)nc1-2)C(N)=O" .
A: 2.5 nM

Q: # get_value(readout='IC50', item= "CC[C@H]1C[C@]2(C1)C(=O)N(C)c1cnc3cc(F)c(-c4cnc(OCCNC(C)C)c(NS(C)(=O)=O)c4)cc3c12" )
A: 18 nM

Q: Given the compound "COc1ccc(-c2nn(Cc3cc4cccc(C)c4c(=O)n3-c3ccccc3C)c3ncnc(N)c23)cc1OC" , what is its reported IC50?
A: > 10000 nM

Q: # lookup: IC50 of "Cc1ccc(N2Cc3ncnc(N4CCOc5ccc(-c6ccc7nc(C)[nH]c7c6)cc5C4)c3C2)cc1"
A: ≥ 2000 nM
